Entry source: patent US20240076386A1

pEC50 listing for selected binders.
Biological target: T1, human E-selectin extracellular domain with 10 His purification tail (human, UniProt P16581 22-556)
T1 construct: also called soluable human E-selectin extracellular domain; rhE-Selectin
T1 sequence: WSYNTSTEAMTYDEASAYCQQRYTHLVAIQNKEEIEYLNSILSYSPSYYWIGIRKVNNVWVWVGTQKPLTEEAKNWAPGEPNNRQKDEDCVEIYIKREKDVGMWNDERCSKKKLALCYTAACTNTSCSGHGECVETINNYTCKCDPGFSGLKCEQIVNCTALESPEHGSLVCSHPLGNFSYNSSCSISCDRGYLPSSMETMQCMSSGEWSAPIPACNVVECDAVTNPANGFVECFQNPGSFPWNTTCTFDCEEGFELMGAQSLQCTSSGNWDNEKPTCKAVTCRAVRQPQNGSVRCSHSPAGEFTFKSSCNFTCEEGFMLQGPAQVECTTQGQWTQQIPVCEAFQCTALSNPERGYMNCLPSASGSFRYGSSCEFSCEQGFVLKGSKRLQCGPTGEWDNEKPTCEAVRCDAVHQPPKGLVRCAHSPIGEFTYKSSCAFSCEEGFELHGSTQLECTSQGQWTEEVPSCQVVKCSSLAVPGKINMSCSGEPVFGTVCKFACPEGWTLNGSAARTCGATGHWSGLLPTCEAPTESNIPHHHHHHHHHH
Assay: antigen binding ELISA, HRP detection
Lab note — pEC50 values are minus log10 of concentrations in M.

anti-E-selectin antibody 0180 chimera (antibody, human IgG1, kappa, V domains shown, rat VH/VL on effector-null human IgG1 and human kappa) VH: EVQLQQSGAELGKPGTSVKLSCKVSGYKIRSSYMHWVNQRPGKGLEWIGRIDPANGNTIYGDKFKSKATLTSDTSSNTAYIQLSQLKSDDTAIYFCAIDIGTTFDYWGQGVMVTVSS VL: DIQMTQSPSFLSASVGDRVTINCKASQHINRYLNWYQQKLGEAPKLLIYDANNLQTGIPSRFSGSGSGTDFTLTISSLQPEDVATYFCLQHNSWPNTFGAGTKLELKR :: 11.00
anti-E-selectin antibody 0039 chimera (antibody, human IgG1, kappa, V domains shown, rat VH/VL on effector-null human IgG1 and human kappa) VH: QVQLKETGPGLVQPTQTLSITCTVSGFSLTGYYMQWVRQTPGKGLEWMGFIRSSGSTEYNSEFKSRLSISRDTSKNQVFLKMNSLKTEDTGVYYCARCPYKYSSFVYVGVMDAWGQGAPVTVSS VL: EIVMTQSPTSMSTSIGERVTLNCKASQTVGINVDWYQQTPGQPPKLLIYGASNRHTGVPDRFTGSGFGRDFTLTISNVEAEDLAVYCCLQYGSIPHTFGPGTKLELKR :: 10.70

Lab note: next binder to report on.
The binder anti-E-selectin antibody 0159 chimera (antibody, human IgG1, kappa, V domains shown, rat VH/VL on effector-null human IgG1 and human kappa) VH: EVQLQQSGAELGKPGTSVKLSCKVSGYNIRSTYMHWVSQRPGKGLEWIGRIDPANGNTIYAEKFKRKATLTADTSSNTAYMQLSQLKSDDRAIYFCAMEVRVSFEYWGQGVMVTVSS VL: DIQMTQSPSFLSASVGDRVTINCKASQNINKYLDWYQQKLGEGPKLLIYYTNNLHTGIPSRFSGSGSGTDFTLTISSLQPEDVATYFCLQHDSGYTFGAGTKLELKR showed pEC50 equal to 10.70
